Just for reference, ChEMBL document CHEMBL4765349 is where these values come from.

- Target Or System: Receptor-type tyrosine-protein kinase FLT3 (Homo sapiens)
- Sequence (P36888 whole entry): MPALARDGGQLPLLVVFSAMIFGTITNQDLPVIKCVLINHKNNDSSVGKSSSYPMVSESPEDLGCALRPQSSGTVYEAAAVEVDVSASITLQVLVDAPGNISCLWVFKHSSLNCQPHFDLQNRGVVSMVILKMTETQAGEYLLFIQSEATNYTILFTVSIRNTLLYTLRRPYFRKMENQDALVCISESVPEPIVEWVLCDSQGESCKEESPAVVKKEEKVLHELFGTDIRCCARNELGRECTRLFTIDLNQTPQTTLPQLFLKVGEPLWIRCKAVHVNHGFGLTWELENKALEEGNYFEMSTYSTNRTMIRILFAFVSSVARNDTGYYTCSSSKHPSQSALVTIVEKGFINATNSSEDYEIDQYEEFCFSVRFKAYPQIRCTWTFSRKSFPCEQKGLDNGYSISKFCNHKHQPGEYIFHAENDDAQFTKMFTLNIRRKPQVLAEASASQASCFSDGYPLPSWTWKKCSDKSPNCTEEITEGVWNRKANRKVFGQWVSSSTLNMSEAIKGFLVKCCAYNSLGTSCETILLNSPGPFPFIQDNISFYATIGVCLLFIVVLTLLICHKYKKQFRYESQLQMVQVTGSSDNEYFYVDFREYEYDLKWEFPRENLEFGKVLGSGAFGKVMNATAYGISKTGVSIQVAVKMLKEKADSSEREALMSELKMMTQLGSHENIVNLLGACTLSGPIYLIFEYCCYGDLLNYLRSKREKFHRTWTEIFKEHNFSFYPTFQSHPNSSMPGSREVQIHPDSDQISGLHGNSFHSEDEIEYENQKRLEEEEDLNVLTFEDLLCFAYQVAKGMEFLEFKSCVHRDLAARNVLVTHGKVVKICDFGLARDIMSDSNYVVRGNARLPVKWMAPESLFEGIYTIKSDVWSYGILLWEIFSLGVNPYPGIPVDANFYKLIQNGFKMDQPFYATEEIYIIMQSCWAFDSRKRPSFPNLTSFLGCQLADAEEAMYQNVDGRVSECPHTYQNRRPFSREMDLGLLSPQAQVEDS
Observed Property: pIC50
Field pIC50 (float): negative decimal logarithm of the concentration in molar.

-- ask // fetch Receptor-type tyrosine-protein kinase FLT3 (Homo sapiens) pIC50 for COCC/C(=N\S(=O)(=O)Cc1ccc(Cl)cc1)Nc1ccc(Oc2ccnc3cc(OCCCN4CCOCC4)c(OC)cc23)c(F)c1
-- reply 8.14
